Test system: ACHN renal
Assay: NCI-60 one-dose screen, 48 h (100 = growth as untreated, 0 = no growth, -100 = all killed)
Conditions: 10 µM unless noted
Compounds without any hit were thinned out: in the full panel of roughly 83,000, 20% have a hit.
Exercise: for every item that follows, state its recorded growth.
Note: unit % is implicit; provide only the numeric part.

growth for COc1ccc(Br)c(/C=C2\SC(=Nc3ccc(O)cc3)NC2=O)c1 is 89.7

Sample O=C(NC1CCCCC1)C(c1cccs1)N(CCc1ccccc1)C(=O)c1ccco1 (stereo not given) ; growth observed: 94.6

For record COc1cc(C(=O)Nc2ccc(-c3nc4ccccc4[nH]3)cc2)cc(OC)c1OC the listed growth is 61.9

Note to self: growth recorded for COC(=O)/C(=C\c1c(C)[nH]c2ccccc12)S(=O)(=O)c1ccccc1 was 49.1

Form field growth, entry COc1ccc(CCN2C(=O)CCSC2=S)cc1OC : 102
